# Test system: HeLa
# procedure text: Antiproliferative activity against HeLa cells
# Assay type: functional, cell-based
# applied conditions: Homo sapiens
endpoint name: IC50 (nM)

State the recorded IC50 for this entry: `CO/N=C/c1c(N)ncnc1Oc1cc2cc[nH]c2cc1F`
382

Subsequent entry: `Cc1cc2c(F)c(Oc3ncnc(N)c3/C=N/OCCO)ccc2[nH]1`
406

Subsequent entry: `Cc1cc2c(F)c(Oc3ncnc(N)c3/C=N/O)ccc2[nH]1`
472

a = CO/N=C/c1c(N)ncnc1Oc1ccc2[nH]ccc2c1F
b = CCO/N=C/c1c(N)ncnc1Oc1ccc2[nH]c(C)cc2c1F
c = Cc1cc2c(F)c(Oc3ncnc(N)c3/C=N/OCC3CCCCC3)ccc2[nH]1
Rank by IC50 (largest to smallest). Please express your ranking as an ordered list of the labels.
c, a, b
(c: 22700 nM, a: 401 nM, b: 32 nM)

A = Cc1cc2c(F)c(Oc3ncnc(N)c3/C=N/OCCCO)ccc2[nH]1
B = Cc1cc2c(F)c(Oc3ncnc(N)c3/C=N/OCCN3CCCC3)ccc2[nH]1
C = CCCO/N=C/c1c(N)ncnc1Oc1ccc2[nH]c(C)cc2c1F
D = CNCCO/N=C/c1c(N)ncnc1Oc1ccc2[nH]c(C)cc2c1F
Number of compounds to sort: 4. Sort criterion: IC50, ascending. Please express your ranking as an ordered list of the labels.
C, A, D, B
(C: 40 nM, A: 362 nM, D: 2010 nM, B: 4220 nM)

a = CO/N=C/c1c(N)ncnc1Oc1ccc2[nH]c(C)cc2c1
b = CO/N=C/c1c(N)ncnc1Oc1ccc2[nH]ccc2c1
Of the pair a and b , name the member with the lesser recorded IC50. Choose, then provide that item's label.
a

a = COCCCO/N=C/c1c(N)ncnc1Oc1ccc2[nH]c(C)cc2c1F
b = CO/N=C/c1c(N)ncnc1Oc1ccc2ncccc2c1
Of the pair a and b , name the member with the lesser recorded IC50. Choose, then provide that item's label.
a
